# System under test: human active recombinant p38 (p38α) (Homo sapiens)
# Construct: 6His
# Run description: p38 Alpha Enzyme Assay (AlphaScreen, biotinylated-ATF2 substrate)
# Format: biochemical
# Condition info: means of replicate determinations; pre-incubated for 4 hours at 37° C.; SD of assay between 0.2 and 0.3 log units; read-out: p38α inhibition Mean pIC50 (converted)
Strictly below 0.3 nM in IC50: MET. Otherwise: NOT MET.

Q: Does the reported IC50 of the following compound sit strictly below 0.3 nM? Cc1c(F)cc(C(=O)NC2CC2)cc1-c1ccc2c(=O)n(CC(C)(CO)CO)cc(SC3CCNCC3)c2c1 [Example 66]
Result: MET

Q: In the record for Cc1c(F)cc(C(=O)NC2CC2)cc1-c1ccc2c(=O)n(CC3CC3)cc(S(=O)(=O)N3CCCNCC3)c2c1 [Example 51] , is IC50 less than 0.3 nM?
Result: MET

Q: # strict comparison: is reported IC50 < 0.3 nM? input = Cc1c(F)cc(C(=O)NC2CC2)cc1-c1ccc2c(=O)n(CC(C)(C)CO)cc(C(C)N3CCN[C@@H](CO)C3)c2c1 (stereo partly shown) [Example 45]
Result: MET

Q: Identify whether the compound Cc1c(F)cc(C(=O)NC2CC2)cc1-c1ccc2c(=O)n(CCO)cc(CN3CCCN(C)CC3)c2c1 [Example 7] records IC50 below 0.3 nM.
Result: NOT MET

Q: Hi there! Is IC50 for Cc1c(F)cc(C(=O)NC2CC2)cc1-c1ccc2c(=O)n(CC(C)(C)CO)cc(C(C)N3CCNCC3)c2c1 (single isomer, unassigned) [Example 39] below 0.3 nM, do you know?
Result: NOT MET

Q: # strict comparison: is reported IC50 < 0.3 nM? input = Cc1c(F)cc(C(=O)NC2CC2)cc1-c1ccc2c(=O)n(CC(C)(C)CO)cc(CN3CCCN(C)CC3)c2c1 [Example 2]
Result: MET

Q: Threshold test, IC50 < 0.3 nM: Cc1c(F)cc(C(=O)NC2CC2)cc1-c1ccc2c(=O)n(CCO)cc(CN3CCNCC3)c2c1 [Example 5]
Result: MET

* * *

# System under test: human active recombinant p38 (p38α) (Homo sapiens, UniProt Q16539)
# Construct: 6His
# Sequence (Q16539 whole entry): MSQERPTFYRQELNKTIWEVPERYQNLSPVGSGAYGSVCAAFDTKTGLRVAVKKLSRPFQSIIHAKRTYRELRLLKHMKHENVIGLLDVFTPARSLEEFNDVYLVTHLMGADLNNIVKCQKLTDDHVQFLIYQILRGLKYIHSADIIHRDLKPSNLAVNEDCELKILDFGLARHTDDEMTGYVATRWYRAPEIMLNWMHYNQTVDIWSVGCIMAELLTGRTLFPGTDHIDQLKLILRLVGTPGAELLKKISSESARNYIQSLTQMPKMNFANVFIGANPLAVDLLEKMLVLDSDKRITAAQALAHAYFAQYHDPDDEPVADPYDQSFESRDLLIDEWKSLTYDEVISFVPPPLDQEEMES
# Run description: p38 Alpha Enzyme Assay (AlphaScreen, biotinylated-ATF2 substrate)
# Assay type: biochemical
# Condition info: means of replicate determinations; pre-incubated for 4 hours at 37° C.; SD of assay between 0.2 and 0.3 log units; read-out: p38α inhibition Mean pIC50 (converted)
Measured quantity: log10 IC50 (log10 of the value in nM)
Reminder: these figures are log10 of reported IC50, in nM before transformation.

Value of measured log10 IC50 for the entry Cc1c(F)cc(C(=O)NC2CC2)cc1-c1ccc2c(=O)n(CC(C)(C)CO)cc(S[C@H]3CCN[C@H](CO)C3)c2c1 [Example 67] : -0.60

The compound listed as Cc1c(F)cc(C(=O)NC2CC2)cc1-c1ccc2c(=O)n(CC(CO)CO)cc(CN3CCN[C@@H](C)C3)c2c1 [Example 35] shows log10 IC50 equal to 0.70

The reported value for Cc1c(F)cc(C(=O)NC2CC2)cc1-c1ccc2c(=O)n(CC3(CO)CC3)cc(CN3CCN[C@@H](C)C3)c2c1 [Example 34] in terms of log10 IC50 is 0.00

# compound Cc1c(F)cc(C(=O)NC2CC2)cc1-c1ccc2c(=O)n(CCCO)cc(CN3CCNCC3)c2c1 [Example 10] ; its log10 IC50 = -1.10

Value of measured log10 IC50 for the entry Cc1c(F)cc(C(=O)NC2CC2)cc1-c1ccc2c(=O)n(CC(C)(C)CO)cc(CN3CCNC[C@H]3C)c2c1 [Example 26] : -0.60

The measured log10 IC50 associated with Cc1c(F)cc(C(=O)NC2CC2)cc1-c1ccc2c(=O)n(CC(C)(C)CO)cc(CN3CCN(C)CC3)c2c1 [Example 24] reads -0.20

The value of log10 IC50 measured for the compound Cc1c(F)cc(C(=O)NC2CC2)cc1-c1ccc2c(=O)n(CC(C)(C)CO)cc(S(=O)(=O)C3CCNCC3)c2c1 [Example 60] turned out to be -0.40

* * *

# System under test: human active recombinant p38 (p38α) (Homo sapiens)
# Construct: 6His
# Run description: p38 Alpha Enzyme Assay (AlphaScreen, biotinylated-ATF2 substrate)
# Type: biochemical
# Condition info: means of replicate determinations; pre-incubated for 4 hours at 37° C.; SD of assay between 0.2 and 0.3 log units; read-out: p38α inhibition Mean pIC50 (converted)
Measured quantity: IC50 (nM)
Give the value in nM but do not write nM after it.

For this compound ( `Cc1c(F)cc(C(=O)NC2CC2)cc1-c1ccc2c(=O)n(C[C@H](C)CO)cc(CN3CCNCC3)c2c1` ), measured IC50 is 0.794

# IC50 (compound: `Cc1c(F)cc(C(=O)NC2CC2)cc1-c1ccc2c(=O)n(CC(C)(C)CO)cc(CN3CCNC[C@H]3CO)c2c1` ) is 0.251

For `Cc1c(F)cc(C(=O)NC2CC2)cc1-c1ccc2c(=O)n(CC(C)(C)CO)cc(CN3CCNCC3)c2c1` the compound record lists IC50 as 0.126

For record `Cc1c(F)cc(C(=O)NC2CC2)cc1-c1ccc2c(=O)n(CC3CC3)cc(S(=O)(=O)N3CCNCC3)c2c1` the listed IC50 is 0.251

The value of IC50 measured for the compound `Cc1c(F)cc(C(=O)NC2CC2)cc1-c1ccc2c(=O)n(CCCO)cc(CN3CCN[C@@H](C)C3)c2c1` turned out to be 0.501

* * *

# System under test: human active recombinant p38 (p38α) (Homo sapiens, UniProt Q16539)
# Construct: 6His
# Run description: p38 Alpha Enzyme Assay (AlphaScreen, biotinylated-ATF2 substrate)
# Type: biochemical
# Condition info: means of replicate determinations; pre-incubated for 4 hours at 37° C.; SD of assay between 0.2 and 0.3 log units; read-out: p38α inhibition Mean pIC50 (converted)
Where a name gives a salt, the structure may show the parent alone.
Measured quantity: log10(IC50) (log10 of the value in nM)
Units before log transform: nM; reported quantity: IC50; transform: log10.

Query Cc1c(F)cc(C(=O)NC2CC2)cc1-c1ccc2c(=O)n(CC(C)(C)CO)cc(C(C)N3CCNCC3)c2c1 (racemic) [Example 38] yields log10(IC50) of -0.70

Lab book: log10(IC50) of Cc1c(F)cc(C(=O)NC2CC2)cc1-c1ccc2c(=O)n(CC(C)(C)CO)cc([S+]([O-])C3CCNCC3)c2c1 (centres unmarked) noted as -0.30

Entry `Cc1c(F)cc(C(=O)NC2CC2)cc1-c1ccc2c(=O)n(CC3CC3)cc(S(=O)(=O)N3CCC(N)CC3)c2c1` ; log10(IC50) = -0.70

Lab note: `Cc1c(F)cc(C(=O)NC2CC2)cc1-c1ccc2c(=O)n(CC(C)(C)CO)cc(S(=O)(=O)N3CCC[C@@H]3CN)c2c1` gave log10(IC50) of 0.40

Lab note: measured log10(IC50) of `Cc1c(F)cc(C(=O)NC2CC2)cc1-c1ccc2c(=O)n(CC(C)(CO)CO)cc(CN3CCN[C@@H](C)C3)c2c1` was 0.50

Measured log10(IC50), `Cc1c(F)cc(C(=O)NC2CC2)cc1-c1ccc2c(=O)n(CCC(C)(C)O)cc(CN3CCN[C@@H](CO)C3)c2c1` : -0.30

Noted for `Cc1c(F)cc(C(=O)NC2CC2)cc1-c1ccc2c(=O)n(CC[C@H](C)O)cc(CN3CCNCC3)c2c1` : its log10(IC50) reads 0.20

log10(IC50) measured on `Cc1c(F)cc(C(=O)NC2CC2)cc1-c1ccc2c(=O)n(C[C@@H](C)CO)cc(CN3CCNCC3)c2c1` = -0.10

Just so you know, measured log10(IC50) for `Cc1c(F)cc(C(=O)NC2CC2)cc1-c1ccc2c(=O)n(CC(C)(C)CO)cc(S(=O)(=O)N3CC[C@H](N)C3)c2c1` came out at -0.40

Recorded log10(IC50) (compound `Cc1c(F)cc(C(=O)NC2CC2)cc1-c1ccc2c(=O)n(CC3(CO)CC3)cc(CN3CCN[C@H](CO)C3)c2c1` ): -0.30

The value of log10(IC50) measured for the compound `Cc1c(F)cc(C(=O)NC2CC2)cc1-c1ccc2c(=O)n(CC(C)(C)CO)cc(S(=O)(=O)N3CCN[C@@H](CO)C3)c2c1` turned out to be -0.30

The compound listed as Cc1c(F)cc(C(=O)NC2CC2)cc1-c1ccc2c(=O)n(CC(C)(C)CO)cc(CN3CCN[C@@H](C)C3)c2c1 [Example 29, hydrochloride] has a reported log10(IC50) of -0.10

Field log10(IC50) (entry `Cc1c(F)cc(C(=O)NC2CC2)cc1-c1ccc2c(=O)n(CC3CC3)cc(S(=O)(=O)N3CCN(C)CC3)c2c1` ) reads -0.40

response.value for Cc1c(F)cc(C(=O)NC2CC2)cc1-c1ccc2c(=O)n(CC(C)(C)CO)cc(C(C)N3CCCNCC3)c2c1 (centres unmarked) (field: log10(IC50)) = -0.30
